# measurement.notes: protein stability index of a GFP-peptide fusion (GPS, HEK-293T) (PSI 1-6); higher = more stable;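 note: 24-mer peptide tiles fused after GFP, lentivirally expressed, FACS-sorted into six equal bins by GFP/DsRed ratio, decoded by Illumina sequencing, PSI is the read-weighted mean bin number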
# condition.info: treatment: MLN4924 1 uM, 8 h; c terminus: a fixed tail appended
Outcome: 1 for protein stability index of at least 3; 0 for anything lower.

Query :: Exam item: decide whether the reported protein stability index for LAYGSVITVKNLRMAIGYLHSHRH [POMT2] is at least 3.
Result :: 0

Query :: Exam item: decide whether the reported protein stability index for EFEQFESTIGFKLPNHRAAKRLWK [EPB41L3] is at least 3.
Result :: 1

Query :: Exam item: decide whether the reported protein stability index for PLCNFNVIESFTELSRIVLMRHGM [RAB40C] is at least 3.
Result :: 0

Query :: Exam item: decide whether the reported protein stability index for ELPDPLGGLLDEAMLDEISLMDLA [NFE2L1] is at least 3.
Result :: 1

Query :: Exam item: decide whether the reported protein stability index for LQSFEDLASISTYGFRGEALASIS [MLH1] is at least 3.
Result :: 0

Query :: Exam item: decide whether the reported protein stability index for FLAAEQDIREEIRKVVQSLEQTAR [TSN] is at least 3.
Result :: 1

Query :: Exam item: decide whether the reported protein stability index for MEVGSGSRELSLRPSRSGAQQLEE [EID1] is at least 3.
Result :: 1

Query :: Exam item: decide whether the reported protein stability index for DCRYPYEYEGGHIKTAVNLPLERD [CDC25B] is at least 3.
Result :: 1

Query :: Exam item: decide whether the reported protein stability index for HCNVSNILHMNGSQSSTYRGTYEQ [ZNF396] is at least 3.
Result :: 1

Query :: Exam item: decide whether the reported protein stability index for MLDSALRFQAMEETHLRHMKALLG [FCHO1] is at least 3.
Result :: 0

Query :: Exam item: decide whether the reported protein stability index for IKIFKYISFNKTMTQLSSTLARCA [PKD2L1] is at least 3.
Result :: 0

Query :: Exam item: decide whether the reported protein stability index for QLGRALTAHLYSLLQTQHALGDAF [ARFIP2] is at least 3.
Result :: 1

Query :: Exam item: decide whether the reported protein stability index for AVVALTQDQPSEAATGGATLAQTI [HDAC6] is at least 3.
Result :: 1
